Source of measurements: ChEMBL document CHEMBL3784986

Reported Efficacy by item:
- experimental system: C-X-C chemokine receptor type 3 (Homo sapiens) (UniProt P49682)
- assay details: Positive allosteric modulation of human CXCR3 expressed in HEK293T cell membranes after 30 mins by [35S]GTPgammaS incorporation assay relative to CXCL11
- Format: functional
- condition context: HEK-293T

Worked set:
COc1ccc(C(=O)CCC(=O)N2Cc3ccccc3C[C@H]2C(=O)NCCCC[C@H](NC(=O)OC(C)(C)C)C(=O)NCC(c2ccccc2)c2ccccc2)cc1	50%
CC(C)(C)OC(=O)NCCCC[C@@H](NC(=O)[C@@H]1Cc2ccccc2CN1C(=O)CCC(=O)c1ccccc1)C(=O)NCC(c1ccccc1)c1ccccc1	33%

Query: Field request: Efficacy | item: CC(C)(C)OC(=O)N[C@@H](CCCCNC(=O)[C@@H]1Cc2ccccc2CN1C(=O)CCC(=O)c1ccc(F)cc1)C(=O)NCC(c1ccccc1)c1ccccc1
Response: 20%

---

- experimental system: C-X-C chemokine receptor type 3 (Homo sapiens)
- Sequence (whole entry): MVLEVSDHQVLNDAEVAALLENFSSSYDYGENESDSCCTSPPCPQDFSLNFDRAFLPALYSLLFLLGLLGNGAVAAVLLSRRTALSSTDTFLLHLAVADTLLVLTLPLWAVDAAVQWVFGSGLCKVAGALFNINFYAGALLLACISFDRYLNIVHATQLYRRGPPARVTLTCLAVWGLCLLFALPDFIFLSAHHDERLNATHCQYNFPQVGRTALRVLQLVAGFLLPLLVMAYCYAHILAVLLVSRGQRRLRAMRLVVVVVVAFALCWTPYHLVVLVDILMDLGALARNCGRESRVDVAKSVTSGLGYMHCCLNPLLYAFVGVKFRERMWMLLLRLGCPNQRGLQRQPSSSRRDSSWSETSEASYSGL
- assay details: Positive allosteric modulation of ProLink2-tagged wild type CXCR3 (unknown origin) expressed in HEK293T cells assessed as beta-arrestin-2 recruitment incubated for 4 hrs by chemiluminescence-based microplate reader method relative to CXCL11
- Type: cell-based
- condition context: HEK-293T
quantity name: Efficacy (%)

Worked set:
N[C@@H](CCCCNC(=O)[C@@H]1Cc2ccccc2CN1C(=O)CCC(=O)c1ccccc1)C(=O)NCC(c1ccccc1)c1ccccc1	27
N[C@@H](CCCCNC(=O)[C@@H]1Cc2ccccc2CN1C(=O)CCCC(=O)c1ccccc1)C(=O)NCC(c1ccccc1)c1ccccc1	91
N[C@H](CCCCNC(=O)[C@@H]1Cc2ccccc2CN1C(=O)CCC(=O)c1ccccc1)C(=O)NCC(c1ccccc1)c1ccccc1	79
CC(C)(C)OC(=O)N[C@@H](CCCCNC(=O)[C@@H]1Cc2ccccc2CN1C(=O)CCCC(=O)c1ccccc1)C(=O)NCC(c1ccccc1)c1ccccc1	56
NCCCC[C@@H](NC(=O)[C@@H]1Cc2ccccc2CN1C(=O)CCC(=O)c1ccccc1)C(=O)NCC(c1ccccc1)c1ccccc1	198

a. CC(C)(C)OC(=O)N[C@H](CCCCNC(=O)[C@@H]1Cc2ccccc2CN1C(=O)CCC(=O)c1ccccc1)C(=O)NCC(c1ccccc1)c1ccccc1
b. CC(C)(C)OC(=O)NCCCC[C@@H](NC(=O)[C@@H]1Cc2ccccc2CN1C(=O)CCC(=O)c1ccccc1)C(=O)NCC(c1ccccc1)c1ccccc1
Query: Parameter check: reported Efficacy is higher for which label, a or b ? Reply with the label of the item you choose.
Response: a
